These data points were gathered from PubChem BioAssay AID179.

Please respond with reported pIC50 for every item in the list.
- Tested on: CEM cells HIV-1 protection, formazan growth assay
- assay procedure: NCI AIDS Antiviral Assay
- condition context: measured here: growth of uninfected CEM cells
Where a SMILES comes first, the peptide text is derived from it. Bridges are numbered along the chain shown (N, C = ends).
Give bare numbers, as −log10 of the molar value.

Query: Return the recorded pIC50 value; entry: COC(=O)C1CCC(=O)NCCCCC(NC(=O)C(N)CC(=O)O)C(=O)N1 (stereo not drawn) (H-Asp-Lys-Glu-OMe; lactam 2-3; configuration not given here)
Reply: 4.04

Would you mind giving pIC50 for every compound in the list below?
1. Cc1nnc(N)nc1C/C=C/C(Sc1ccc(Cl)cc1)c1ccccc1 (configuration not stated)
2. CC1CCC2(CC1)NC1=C(CC(C)CC1)C1=C2CC(C)CC1 (configuration not stated)

Reply:
5.40
4.45

====

- System: CEM cells HIV-1 protection, formazan growth assay
- assay procedure: NCI AIDS Antiviral Assay
- condition context: measured here: growth of uninfected CEM cells
- Procedure: The ability of compounds to protect human CEM cells from HIV-1 infection is measured as a screen for new compounds capable of inhibiting the HIV virus. Five concentrations of drug were tested on uninfected and infected cells and cell growth was measured using a soluble formazan assay. […] Compounds that provided at least 50% protection were retested. Compounds that provided at least 50% protection on retest were listed as moderately active. […]
pIC50: −log10 of the molar value. Where a SMILES comes first, the peptide text is derived from it. Bridges are numbered along the chain shown (N, C = ends). The star is where a group is joined. Cbz = O=C(OCc1ccccc1)*; OBn = c1ccc(CO*)cc1
Please respond with reported pIC50 for every item in the list.

Before answering, review these 4 worked examples.
Query: Return the recorded pIC50 value; entry: `Cc1ccc(S(=O)(=O)CNC(=O)C(O)(O)C(F)(F)F)cc1`
Reply: < 3.70

Query: Return the recorded pIC50 value; entry: `c1nc(SSc2ncnc3nc[nH]c23)c2[nH]cnc2n1`
Reply: 6.34

Query: Return the recorded pIC50 value; entry: Cc1ccc(NC(=O)C(=O)C(C(=O)c2ccc3ccccc3c2)C2OC(=O)c3ccccc32)c(C)c1 (centres undefined)
Reply: 4.67

Query: Return the recorded pIC50 value; entry: COC(=O)C1ON(C(=O)c2ccccc2)C(C)C2OC12 (centres undefined)
Reply: < 3.49

Would you mind giving pIC50 for every compound in the list below?
1. CCCc1cc(=O)c2c(C)c3[nH]c4ccc(Cl)cc4c3c(C)c2[nH]1
2. Cc1ccc2oc(-c3nnc(N)s3)cc(=O)c2c1
3. O=S(=O)(c1ccc(NCSc2nc3ccccc3s2)cc1)c1ccc(NCSc2nc3ccccc3s2)cc1

Reply:
1: 4.96; 2: < 4.55; 3: < 4.92

Would you mind giving pIC50 for every compound in the list below?
1. CCC(C(=O)OC)C1CCN(C)C(=O)C12CO2 (centres undefined)
2. COC(=O)C1CCC(=O)NCCCCC(NC(=O)C(CC(=O)OCc2ccccc2)NC(=O)OCc2ccccc2)C(=O)N1 (stereo not drawn) (Cbz-Asp(OBn)-Lys-Glu-OMe; lactam 2-3; configuration not given here)

Reply:
["< 2.99", "< 3.70"]

====

- Tested on: CEM cells HIV-1 protection, formazan growth assay
- assay procedure: NCI AIDS Antiviral Assay
pEC50: −log10 of the molar value.
measured parameter: pEC50

Before answering, review these 2 worked examples.
Query: # return pEC50 of `CC(C)(Sc1cc(C(C)(C)C)c(O)c(C(C)(C)C)c1)Sc1cc(C(C)(C)C)c(O)c(C(C)(C)C)c1` (system: CEM cells HIV-1 protection, formazan growth assay)
Reply: < 4.58

Query: # return pEC50 of `Cc1n[nH]c(=O)n1N1C(=O)c2ccccc2C1=O` (system: CEM cells HIV-1 protection, formazan growth assay)
Reply: < 3.70

Would you mind giving pEC50 for every compound in the list below?
1. Cc1nc2ccccc2c(=O)n1NC(=O)c1ccccc1O
2. Cc1ccccc1NC(=O)Cc1csc(N/N=C2\NC(=O)/C(=C/c3cccc([N+](=O)[O-])c3)S2)n1
3. C=CCCCCCCCCC/C=C1\C[C@H](O)COC1=O

Reply:
1: < 3.70; 2: < 3.70; 3: < 4.03
